This listing pairs compounds with measured melting point.
assay_readout: melting point

[[record]]
compound = "COc1cc2c(cc1Cl)C(=O)Cc1ccccc1S2"
assay_result = "171 to 173 °C"

[[record]]
compound = "NS(=O)(=O)c1cc(Cl)c(Cl)cc1OC(F)(F)F"
assay_result = "181 to 185 °C"

[[record]]
compound = "CCOC1CN(Cc2ccc(OC)cc2)Cc2cc(OC)c(O)cc21 (configuration not stated)"
assay_result = "154 to 157 °C"

[[record]]
compound = "C[C@]1(COC(=O)N2CCC(Nc3ccc(C(F)(F)F)cc3)CC2)Cn2cc([N+](=O)[O-])nc2O1"
assay_result = "137 to 140 °C"

[[record]]
compound = "C[C@]1(CN2CCN(C(=O)NC3CCCCC3)CC2)Cn2cc([N+](=O)[O-])nc2O1"
assay_result = "98 to 101 °C"

[[record]]
compound = "CCCCCN1C(=O)C(CCC(=O)O)(NC(=O)c2cc3ccccc3n2CCC#N)c2ccccc21 (configuration not stated)"
assay_result = "125 °C"

[[record]]
compound = "Cn1c(=S)c(-c2cccs2)nc2ccccc21"
assay_result = "113 °C"

[[record]]
compound = "Cn1nnc2c1C(=O)C(Cl)=C(Cl)C2=O"
assay_result = "254 to 255 °C"

[[record]]
compound = "NCC1Cc2cc(-c3ccc(C(F)(F)F)cc3)cc(F)c2O1 (configuration not stated)"
assay_result = "> 250 °C"

[[record]]
compound = "CC(C)(c1ccccc1)N(C(N)=O)C(C)(C)c1ccccc1"
assay_result = "226 to 227 °C"

[[record]]
compound = "Cc1ccc(Cn2nnc(C(N)=O)c2N)cc1"
assay_result = "223 to 225 °C"

[[record]]
compound = "C=CCC(O)(C(=O)c1ccc(C)cc1)c1ccc(C)cc1 (configuration not stated)"
assay_result = "38 to 40 °C"

[[record]]
compound = "Oc1c(-c2nnn[nH]2)cnc2c(Br)cccc12"
assay_result = "> 260 °C"

[[record]]
compound = "N#Cc1ccc(CNC(=O)c2cccc(C#CCn3cncn3)c2)cc1"
assay_result = "183 to 186 °C"

[[record]]
compound = "CN1CCN(CCCn2cc(Br)c3c4c(c(-c5ccccc5Cl)cc32)C(=O)NC4=O)CC1"
assay_result = "150 to 152 °C"

[[record]]
compound = "Cc1cc(CBr)c(CBr)cc1C"
assay_result = "116 to 120 °C"

[[record]]
compound = "OC1(c2ccc(Cl)cc2)CCN(Cc2c[nH]c3ccccc23)CC1"
assay_result = "213 to 214 °C"


* * *

assay_readout: melting point

[[record]]
compound = "CN1C(=S)NC(=O)C1=Cc1cc(C(C)(C)C)c(O)c(C(C)(C)C)c1"
assay_result = "242 to 244 °C"

[[record]]
compound = "CCNS(=O)(=O)Cc1ccc(N)cc1"
assay_result = "161 to 164 °C"

[[record]]
compound = "Fc1ccc(Nc2nnc(Cc3ccncc3)c3ccccc23)cc1"
assay_result = "129 to 131 °C"

[[record]]
compound = "CS(=O)(=O)c1ccc(-c2cc(CO[N+](=O)[O-])nn2Cc2ccccc2)cc1"
assay_result = "94 to 96 °C"

[[record]]
compound = "CCOC(=O)c1ncn2c(C(F)F)cc(-c3ccc(C(F)(F)F)cc3)nc12"
assay_result = "219 °C"

[[record]]
compound = "CCCC(=O)NC[C@@H]1CN(c2nc3c(cc2F)c(=O)c(C(=O)OCC)cn3C2CC2)C[C@H]1F (relative stereo)"
assay_result = "105 to 107 °C"

[[record]]
compound = "Cc1cc([N+](=O)[O-])c2c(c1Cl)CC(C)O2 (configuration not stated)"
assay_result = "114 to 116 °C"

[[record]]
compound = "Cc1nnc2ccc(-c3ccc(Cl)cc3)cn12"
assay_result = "192 to 194 °C"

[[record]]
compound = "Cc1ccnc(C(=O)c2[nH]c3cc(Cl)c(Cl)cc3c2CC(=O)O)c1"
assay_result = "220 to 224 °C"

[[record]]
compound = "N#CCCNC(=O)c1n[nH]cc1NC(=O)c1cc(Cl)ccn1"
assay_result = "261 to 263 °C"

[[record]]
compound = "O=S(=O)(Nc1cccc2c(O)cccc12)N1CCOCC1"
assay_result = "220 to 223 °C"

[[record]]
compound = "CCCCNc1cc(CNC(C)=O)cc(S(N)(=O)=O)c1Oc1ccccc1"
assay_result = "190 to 191 °C"

[[record]]
compound = "CC(=O)NCCCC(=O)c1ccccc1"
assay_result = "92 to 95 °C"

[[record]]
compound = "CCC(=O)CCCCCCCc1ccc(O)c(O)c1"
assay_result = "76 to 78 °C"

[[record]]
compound = "O=C1c2ccccc2C(=O)c2c(NCC(O)CCl)ccc(NCC(O)CCl)c21 (configuration not stated)"
assay_result = "167 to 169 °C"

[[record]]
compound = "CN(C)C=Cc1nc2ccccc2c(=O)n1-c1ccccc1Cl"
assay_result = "228 to 230 °C"

[[record]]
compound = "N#Cc1cc(C=O)cnc1Br"
assay_result = "105 to 106 °C"

[[record]]
compound = "COC(=O)/C=C(\\Oc1ccc(F)cc1)C(=O)OC"
assay_result = "60 to 61 °C"

[[record]]
compound = "CC(C)c1noc(-c2c(Cl)ccc(C(=O)c3cnn(C)c3O)c2Cl)n1"
assay_result = "138 to 144 °C"

[[record]]
compound = "CN1CCC(O)(c2cc(F)cc(F)c2)C1 (configuration not stated)"
assay_result = "150 °C"

[[record]]
compound = "N#CCCN1CCN(c2cc3cccnc3c(-c3cccc(C#N)c3)n2)CC1"
assay_result = "> 200 °C"

[[record]]
compound = "Cc1nc2c(N)nc3ccccc3c2s1"
assay_result = "184 to 187 °C"

[[record]]
compound = "COc1ccc(-n2c3c(c(=O)c4cccnc42)CC(C)O3)cc1 (configuration not stated)"
assay_result = "194 to 196 °C"

[[record]]
compound = "OC1Cc2c(Cl)cccc2Sc2ccc(C(F)(F)F)cc21 (configuration not stated)"
assay_result = "130 to 132 °C"

[[record]]
compound = "COc1ccccc1N1CCN(CC(O)COc2ccc(OCc3ccccc3)c(C(C)(C)C)c2)CC1 (configuration not stated)"
assay_result = "133 to 134 °C"

[[record]]
compound = "CC(=O)O[C@@H]1OCC[C@@H]1NC(=O)[C@H](CC(C)C)NS(=O)(=O)c1ccc(N)cc1"
assay_result = "189 to 190 °C"

[[record]]
compound = "CCOC(=O)CS(=O)(=O)Nc1c(C(C)C)cccc1C(C)C"
assay_result = "114 to 116 °C"

[[record]]
compound = "CCOC(=O)c1ccc2c(c1)C(c1ccc(O)cc1)(c1ccc(O)cc1)c1ccccc1-2"
assay_result = "280 °C"

[[record]]
compound = "CCCCCCCCN(C)C(=O)CC(=O)N(C)CCCCCCCC"
assay_result = "41 °C"

[[record]]
compound = "CN1C=CNC1=C(C(=O)C(F)(F)F)C(=O)C(F)(F)F"
assay_result = "180 °C"

[[record]]
compound = "CCOC(=O)N[C@@H]1CC=C[C@@H]2CNC[C@H]21 (racemic)"
assay_result = "120 to 122 °C"

[[record]]
compound = "CC1(C)CC(=O)c2c(S(C)(=O)=O)sc(C(=O)O)c2C1"
assay_result = "208 °C"

[[record]]
compound = "Cc1cc(S(=O)(=O)c2ccccc2)ccc1[N+](=O)[O-]"
assay_result = "70 to 71 °C"

[[record]]
compound = "Cc1ccc(C=CCC(CCC(=O)O)(C(=O)C=Cc2ccc(Cl)cc2)c2ccccc2)cc1 (configuration not stated)"
assay_result = "170 to 180 °C"

[[record]]
compound = "O=C(O)c1cc(-c2ccccc2S(=O)(=O)Cl)c2ccc3c(-c4ccccc4S(=O)(=O)Cl)cc(C(=O)O)nc3c2n1"
assay_result = "> 300 °C"

[[record]]
compound = "NS(=O)(=O)C(Br)(Br)S(=O)(=O)c1ccc(Br)cc1"
assay_result = "192 °C"

[[record]]
compound = "Cc1ccc(C)n1-c1cc(F)c(C2=CCSCC2)c(F)c1"
assay_result = "118 to 119 °C"


* * *

assay_readout: melting point

[[record]]
molecule = "N[C@H]1CC[C@@H](n2ccc(-c3ccc(F)cc3)c2-c2ccncc2)CC1"
assay_readout = "melting point"
assay_result = "163 to 164 °C"

[[record]]
molecule = "CN(c1ccc(O)cc1)c1cc2ccc(F)cc2c(O)n1"
assay_readout = "melting point"
assay_result = "249 °C"

[[record]]
molecule = "CC1(C)CCC(C)(C)c2cc(C(=O)CSc3ccc(C(=O)O)cc3)ccc21"
assay_readout = "melting point"
assay_result = "175 to 179 °C"

[[record]]
molecule = "OC1(c2ccc(Cl)cc2)CN(C(c2ccccc2)c2ccccc2)C1"
assay_readout = "melting point"
assay_result = "108 °C"

[[record]]
molecule = "CN1CCC(O)(c2cc3ccccc3s2)CC1"
assay_readout = "melting point"
assay_result = "161 to 163 °C"

[[record]]
molecule = "CCOC(=O)C(O)=CC=C(C#N)c1ccccc1"
assay_readout = "melting point"
assay_result = "189 °C"

[[record]]
molecule = "COC(=O)c1ccc2cc([C@H]3OC[C@@H](S[C@H](C)[C@](O)(Cn4cncn4)c4ccc(F)cc4F)CO3)ccc2c1"
assay_readout = "melting point"
assay_result = "153 °C"

[[record]]
molecule = "CCn1c(=S)sc2c(=N)n(NC(=O)c3ccco3)cnc21"
assay_readout = "melting point"
assay_result = "226 °C"

[[record]]
molecule = "CCc1ncn(Nc2cccc(C)c2)c1-c1ccccc1"
assay_readout = "melting point"
assay_result = "158 to 160 °C"

[[record]]
molecule = "N#C[C@@H]1CCCN1C(=O)CCl"
assay_readout = "melting point"
assay_result = "53 to 57 °C"

[[record]]
molecule = "CCCc1c(OCCCS(=O)(=O)c2ccc(C(=O)CCCCC(=O)O)cc2)ccc(C(C)=O)c1O"
assay_readout = "melting point"
assay_result = "138 to 140 °C"

[[record]]
molecule = "COC(=O)C(=O)c1ccc(OCCOc2ccc3c(c2)CCCC3)cc1"
assay_readout = "melting point"
assay_result = "95 to 99 °C"

[[record]]
molecule = "CSc1ncnc2c(N3CCSCC3)nc(N3CCNCC3)nc12"
assay_readout = "melting point"
assay_result = "177 to 179 °C"

[[record]]
molecule = "Cc1nc2ccc3c(c2o1)OC(CNC1CCC(c2c[nH]c4ccc(F)cc24)C1)CO3 (stereo not given)"
assay_readout = "melting point"
assay_result = "79 to 82 °C"

[[record]]
molecule = "CCOC(=O)Nc1ccc(OCc2nc3ccccc3s2)cc1"
assay_readout = "melting point"
assay_result = "149 to 150 °C"

[[record]]
molecule = "O=C(O)CCc1c(C(=O)O)[nH]c2cc(I)cc(I)c12"
assay_readout = "melting point"
assay_result = "280 to 282 °C"

[[record]]
molecule = "N#Cc1cnc2c(sc3ccccc32)c1Cl"
assay_readout = "melting point"
assay_result = "305 to 308 °C"

[[record]]
molecule = "COc1ccc(CCN(C)CCOc2ccc(NC(=O)c3cccc4c(=O)c5ccccc5[nH]c34)cc2)cc1"
assay_readout = "melting point"
assay_result = "165 °C"

[[record]]
molecule = "COc1ccc(-n2nc(C(F)F)cc2-c2ccc(S(C)(=O)=O)cc2)cc1"
assay_readout = "melting point"
assay_result = "135 °C"

[[record]]
molecule = "CC(C)(C)CC(NC(=O)c1ccc(C(F)(F)F)cc1)NC(=NS(=O)(=O)C(F)(F)F)Nc1cccnc1 (stereo not given)"
assay_readout = "melting point"
assay_result = "192 to 193 °C"

[[record]]
molecule = "CC1(C)CC(S(=O)(=O)Cc2c(C(F)(F)F)nn(-c3ccccc3)c2Cl)=NO1"
assay_readout = "melting point"
assay_result = "132 to 133 °C"

[[record]]
molecule = "Nc1c(Cl)cc(Cl)c(-c2nsc(C(F)(F)F)c2Cl)c1Br"
assay_readout = "melting point"
assay_result = "77 to 78 °C"

[[record]]
molecule = "COc1ccc2c3cc(C(=O)NCCc4ccc(Cl)cc4)ccc3n(CC3CCCCC3)c2c1"
assay_readout = "melting point"
assay_result = "179 to 181 °C"

[[record]]
molecule = "Cc1cc(NNC(=O)Nc2ccc(N(CCCl)CCCl)cc2)c2ccccc2n1"
assay_readout = "melting point"
assay_result = "235 to 236 °C"

[[record]]
molecule = "COc1ccc(CCNC(=O)C(=O)NCc2ccc([N+](=O)[O-])cc2)cc1OC1CCCC1"
assay_readout = "melting point"
assay_result = "148 to 150 °C"

[[record]]
molecule = "CNC(=O)Cc1ccc2c(c1)Cc1c-2[nH]c(=O)c2nccn12"
assay_readout = "melting point"
assay_result = "> 260 °C"

[[record]]
molecule = "CC(CC(=O)Nc1c(Cl)ccc2nc(N3CCNCC3)ccc12)c1ccccc1 (stereo not given)"
assay_readout = "melting point"
assay_result = "194 to 196 °C"

[[record]]
molecule = "COc1cc(-c2nc(N)sc2CCC2CCCCC2)c(OC)cc1C"
assay_readout = "melting point"
assay_result = "112 °C"

[[record]]
molecule = "CCOc1cccc(-c2ccc(C3=CCN(S(=O)(=O)CC(=O)OC)CC3)cc2)c1"
assay_readout = "melting point"
assay_result = "120 to 122 °C"

[[record]]
molecule = "CCN(CC)C(=O)Nc1ccc(Cn2c(=O)n(C3CCCCC3)c3cc(Cl)ccc32)c(OC)c1"
assay_readout = "melting point"
assay_result = "190 °C"


src = a melting point compilation (Tetko et al.; mined from patent text by program, amines drawn as free bases though some values may be those of a salt)
